Hello, the source for this data is PubChem BioAssay (NCI), in case you need it.

Tested on: HOP-92 NSCLC
Test Name: NCI tumour cell line growth inhibition, 48 h
# TGI per entry

Here are 2 compounds together with their reported answers.
Compound | Outcome Measure | Result Value
C=C(C)C(C1C=C(CCC(C=O)=C(C)C)C(=O)O1)C1(OC)C=C(C)C(=O)O1 (stereo not drawn) | TGI | > 100 µM
Nc1c(C(=O)Nc2ccccn2)sc2nc3c(cc12)C(=O)CCC3 | TGI | > 100 µM

API: the following record is the query input.
Item Cc1ccc2c(c1)c1ccc3c(c1n2C)C(=O)C=CC3=O ; assay system HOP-92 NSCLC; TGI reported as 3.92 µM

====

Tested on: LOX IMVI melanoma
Test Name: NCI tumour cell line growth inhibition, 48 h
Form field: TGI (one value per entry).

Worked examples, 10 molecules total:
Molecule | TGI
CCCCOCCOC1=C(Cl)C(=O)c2c(O)ccc(O)c2C1=O | 0.946 µM
COc1ccc(-c2c(C#N)c(N3CCOCC3)nc3[nH]c(=S)[nH]c(=S)c23)cc1OC | 60.9 µM
Oc1oc(C(=C2N=c3ccccc3=N2)c2ccc(Cl)cc2)c(O)c1-c1ccc(Cl)cc1 | 10.1 µM
Cc1cc(C(=O)CSC(=S)SC(C)(C)C)ccc1Cl | 45 µM
Cc1cc(C)nc(NC(=S)Nc2ccc([N+](=O)[O-])cc2)c1 | > 100 µM
CC(C(=O)COCc1ccccc1)P1(=O)OC(C)(C)CN1C(C)(C)C (stereo unspecified) | > 100 µM
C/C1=C\[C@H](C)C[C@H](C)OC(=O)[C@H](C)NC(=O)[C@@H](Cc2ccc(O)c(Br)c2)N(C)C(=O)[C@H](C)NC(=O)[C@@H](C)C1 | 0.394 µM
C=C(C)[C@H]1C2=CC(C(=O)OC)=C(C[C@H](C(=C)C)[C@@H](O)[C@@H](O)C3=C[C@H]1OC3=O)O2 | > 100 µM
CN1Cc2c(nc(-c3ccccc3)c[n+]2[O-])N(C)C1 | > 100 µM
CCCCCCCCc1cc2c(O)c(c1)Cc1cc(CCCCCCCC)cc(c1O)Cc1cc(CCCCCCCC)cc(c1O)Cc1cc(CCCCCCCC)cc(c1O)Cc1cc(CCCCCCCC)cc(c1O)Cc1cc(CCCCCCCC)cc(c1O)C2 | > 100 µM

Note to self: TGI recorded for CC1(C)CCc2c(ccc(C(=O)/C=C/c3ccc(O)cc3)c2O)O1 was 19.8 µM

Query CC(C)C1CN(C(=O)OCc2ccccc2)C2N1C(=O)C2(C)OCc1ccccc1 (stereo unspecified) yields TGI of > 100 µM

Memo: COC(=N)c1csc(C2OC(CO)C(O)C2O)n1 (stereo unspecified) , reported TGI: > 100 µM

Entry under test: C=CCn1c(=O)ccn(/C(=C/C(=O)OCC)C(=O)OCC)c1=O . Its TGI was 18.1 µM

# molecule Cc1ccsc1/C=N/Nc1cnccn1 ; its TGI = > 100 µM

Note to self: TGI recorded for COc1ccc(C(=O)NCCN(C)C)c2nc3ccccc3cc12 was 1.74 µM

====

Test system: NCI/ADR-RES ovarian
Test Name: NCI tumour cell line growth inhibition, 48 h
Where a SMILES comes first, the peptide text is derived from it. [ ]: non-standard residue; d: D form. The star is where a group is joined. Cbz = O=C(OCc1ccccc1)*; Aib = CC(C)(N)C(=O)O; OBn = c1ccc(CO*)cc1
Outcome Measure: TGI

Compound | TGI
CC(C)(CO)CNc1nc(N)nc(Cl)c1/C=N/O | > 100 µM
CCN(Cc1c(F)cccc1OC)c1ccc(CO)c(Cl)c1 | 43.1 µM
CC12c3c4ccc(C=O)c3Oc3ccc(C=O)c(c31)Oc1ccc(C=O)c(c12)O4 | > 25 µM
Cc1cc(C[C@H]2O[C@@H]3OC(C)(C)O[C@@H]3[C@H]3OC(C)(C)O[C@H]32)c2ccccc2n1 | > 100 µM

Entry under test: O=C(O)C(O)C(O)C(O)C(O)CO (stereo unspecified) . Its TGI was > 100 µM

# compound CCOC(=O)C(NC(=O)CC)(N1CCN(c2cc3c(cc2F)c(=O)c(C(=O)O)cn3C2CC2)CC1)C(F)(F)F (stereo unspecified) ; its TGI = > 100 µM

For record C[C@H](CCOc1cccc(CC(=O)O)c1)N(Cc1cccc(C(F)(F)F)c1Cl)CC(c1ccccc1)c1ccccc1 the listed TGI is 21.3 µM

// COc1ccc(C(=O)NCCN(C)C)c2nc3ccccc3cc12 : TGI value = 5.22 µM

For record COc1cccc2c1OC(c1cccc3ccccc13)C([N+](=O)[O-])=C2 (stereo unspecified) the listed TGI is 7.29 µM

Measured TGI of COc1cc2c3c(n(C)c(=O)c2cc1OC)-c1cc2c(cc1C3=O)OCO2 : > 100 µM

Recorded result, COc1cc2c(cc1OCCCCCN1CCN(c3ncnc4ccccc34)CC1)N=CC1CCCN1C2=O (stereo unspecified) , TGI: > 36.4 µM

The recorded TGI for CC(C)=CCC1=C(O)c2ccccc2C(=O)C1=O is > 100 µM

Entry O=C1CSC2(CC(/C=C/c3cccs3)=NN2c2cccc(S(=O)(=O)O)c2)N1c1nc2ccccc2s1 (stereo unspecified) ; TGI = > 100 µM

Entry Cc1nc2c(Br)cc(Br)cc2c(=O)n1-c1nnc(-c2cccc(Cl)c2Cl)c(N)n1 , TGI reported as 37.5 µM

# compound CNc1[nH]c(=S)nc2sc3c(c12)CCCC3 ; its TGI = > 75 µM

// COC1OC2COC(c3ccccc3)OC2C(O)C1OC(=S)c1ccccc1 (stereo unspecified) : TGI value = > 100 µM

Noted for COc1ccc(-c2nc3ccccc3c(=S)n2OC(C)=O)cc1 : its TGI reads > 25 µM

# TGI of Cc1cc(C(=O)CSC(=S)SC(C)(C)C)ccc1Cl = 42.1 µM

Looking up CC(NC(=O)C(C)(C)NC(=O)C(CC(=O)OCc1ccccc1)NC(=O)OCc1ccccc1)C(N)=O (stereo unspecified) (Cbz-Asp(OBn)-[Aib]-Ala-NH2; configuration not given here) , I found its TGI recorded as > 100 µM

Record O=c1cccc(C#CC#C[C@@H]2O[C@H]2CO)o1 , field TGI: 4.53 µM

Data point: CSc1csc(-c2ccc(-c3ccc(-c4cc(SC)cs4)s3)s2)c1 ; TGI = > 100 µM
